src = ChEMBL document CHEMBL2380259

# procedure summary: Apparent permeability across MDCK cells
# Assay type: ADME, cell-based, Canis lupus familiaris
# condition description: dog
quantity: Papp

For orientation, consider the following solved cases.
{"structure notation": "CC(=O)Nc1cccc(-c2n[nH]c3cc(-c4cnn(C)c4)c(NC4CCCCC4)cc23)c1", "Papp": "20.5 ×10⁻⁶ cm/s"}
{"structure notation": "CCOc1cc2c(-c3cccc(S(N)(=O)=O)c3)n[nH]c2cc1-c1cnn(C)c1", "Papp": "0.6 ×10⁻⁶ cm/s"}

## Task Provide measured Papp value, entry: Cn1cc(-c2cc3[nH]nc(-c4cccc(S(N)(=O)=O)c4)c3cc2NC2CCCCC2)cn1
## Result 2.69 ×10⁻⁶ cm/s

---

# procedure summary: AUC in Sprague-Dawley rat at 1 mg/kg, po by LC-MS/MS analysis
# Assay type: ADME, organism-based
# Design: dose 1 mg/kg, route oral
# condition description: plasma
quantity: AUC (ng·h/mL)
Field: numeric (ng·h/mL). Do not append units.

{"structure notation": "CC(=O)Nc1cccc(-c2n[nH]c3cc(-c4cnn(C)c4)c(NC4CCCCC4)cc23)c1", "AUC [ng·h/mL]": 149}

Shifting focus to the compound that follows.
## Task Item Cn1cc(-c2cc3[nH]nc(-c4cccc(S(N)(=O)=O)c4)c3cc2NC2CCCCC2)cn1 : provide AUC
## Result 11.5

---

Property: bioavailability; scope: individual molecules
# procedure summary: Oral bioavailability in Sprague-Dawley rat at 1 mg/kg by LC-MS/MS analysis
# Format: ADME, organism-based
# condition description: in vivo
Quick note: give the figure in %, leave out the unit.

{"structure notation": "Cn1cc(-c2cc3[nH]nc(-c4cccc(S(N)(=O)=O)c4)c3cc2NC2CCCCC2)cn1", "quantity": "bioavailability", "unit text": "%", "assay value": 2.3}

Now look at this one.
## Task Specify reported bioavailability for the molecule shown: CC(=O)Nc1cccc(-c2n[nH]c3cc(-c4cnn(C)c4)c(NC4CCCCC4)cc23)c1
## Result 17

---

# target or test system: Dual specificity protein kinase TTK (Homo sapiens, UniProt P33981)
# Sequence (P33981 whole entry): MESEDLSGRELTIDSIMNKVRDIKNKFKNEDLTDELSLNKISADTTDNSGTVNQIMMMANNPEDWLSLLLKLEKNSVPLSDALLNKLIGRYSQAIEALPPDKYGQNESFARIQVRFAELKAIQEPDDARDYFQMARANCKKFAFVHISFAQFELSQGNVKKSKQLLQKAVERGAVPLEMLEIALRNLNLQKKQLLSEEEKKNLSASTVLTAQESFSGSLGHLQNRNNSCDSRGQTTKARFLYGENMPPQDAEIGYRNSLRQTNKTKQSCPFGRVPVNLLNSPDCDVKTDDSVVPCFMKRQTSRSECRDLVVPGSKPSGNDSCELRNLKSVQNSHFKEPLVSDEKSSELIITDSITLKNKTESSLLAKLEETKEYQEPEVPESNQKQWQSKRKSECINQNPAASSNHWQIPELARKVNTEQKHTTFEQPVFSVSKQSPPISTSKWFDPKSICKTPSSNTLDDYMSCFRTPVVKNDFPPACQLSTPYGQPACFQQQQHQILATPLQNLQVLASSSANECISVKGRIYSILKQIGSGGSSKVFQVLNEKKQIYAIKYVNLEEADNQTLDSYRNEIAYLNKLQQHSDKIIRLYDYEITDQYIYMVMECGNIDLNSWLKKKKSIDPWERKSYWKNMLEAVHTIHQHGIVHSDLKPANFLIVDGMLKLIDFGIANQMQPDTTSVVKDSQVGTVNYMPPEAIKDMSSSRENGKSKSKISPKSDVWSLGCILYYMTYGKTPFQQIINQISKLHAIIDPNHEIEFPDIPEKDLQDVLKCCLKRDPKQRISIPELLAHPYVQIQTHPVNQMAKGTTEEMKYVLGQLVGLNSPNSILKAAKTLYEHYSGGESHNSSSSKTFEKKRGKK
# procedure summary: Inhibition of MPS1 (unknown origin) using biotin-labeled AGAGLARHTDDEMTGYVA as substrate after 90 mins by DELFIA
Let's look at some compounds and their measured IC50.

{"structure notation": "CC(=O)Nc1cccc(-c2n[nH]c3cc(-c4cnn(C)c4)c(NC4CCCCC4)cc23)c1", "target or test system": "Dual specificity protein kinase TTK (Homo sapiens, UniProt P33981)", "IC50": "12 nM"}
{"structure notation": "CCOc1cc2c(-c3ccc(C)c(S(N)(=O)=O)c3)n[nH]c2cc1-c1cnn(C)c1", "target or test system": "Dual specificity protein kinase TTK (Homo sapiens, UniProt P33981)", "IC50": "3.67 nM"}
{"structure notation": "CCOc1ccc2[nH]nc(-c3cccc(S(N)(=O)=O)c3)c2c1", "target or test system": "Dual specificity protein kinase TTK (Homo sapiens, UniProt P33981)", "IC50": "28 nM"}
{"structure notation": "CCOc1ccc2[nH]nc(-c3ccccc3)c2c1", "target or test system": "Dual specificity protein kinase TTK (Homo sapiens, UniProt P33981)", "IC50": "498 nM"}
{"structure notation": "CCOc1cc2c(-c3cccc(S(N)(=O)=O)c3)n[nH]c2cc1-c1cnn(CC(C)C)c1", "target or test system": "Dual specificity protein kinase TTK (Homo sapiens, UniProt P33981)", "IC50": "119 nM"}

Now turn to the next compound.
## Task Given c1ccc(-c2[nH]nc3ccccc23)cc1 , respond with its IC50.
## Result 2100 nM
